Target: T1, mouse MAdCAM expressed on cells (mouse, UniProt Q61826 22-405)
T1 construct: whole, on cells
T1 sequence (looked up): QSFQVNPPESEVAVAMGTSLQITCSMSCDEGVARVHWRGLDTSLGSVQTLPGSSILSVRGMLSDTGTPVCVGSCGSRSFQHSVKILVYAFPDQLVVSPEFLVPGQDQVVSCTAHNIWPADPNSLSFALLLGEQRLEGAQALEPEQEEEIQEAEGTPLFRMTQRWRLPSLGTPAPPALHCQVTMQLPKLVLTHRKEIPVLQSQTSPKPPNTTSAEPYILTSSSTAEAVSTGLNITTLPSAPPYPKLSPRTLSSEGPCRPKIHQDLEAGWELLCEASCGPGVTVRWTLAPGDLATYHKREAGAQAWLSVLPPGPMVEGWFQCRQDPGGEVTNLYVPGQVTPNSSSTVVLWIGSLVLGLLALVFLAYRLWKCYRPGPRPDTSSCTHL
Assay: cell binding

binder | binding result
MAdCAM antibody Clone ID 61 of Table 6 (scFv) (scFv) scFv: EVQLLESGGGLVQPGGSLRLSCAASEFTFSNAWMSWVRQAPGKGLEWVASISSTSAYIDYADSVKGRFTISRDNSKNTLYLQMNSLRAEDTAVYYCAREVVGATTFDYWGQGTLVTVSSGGGGSGGGGSGGGGSGGGGSDIQMTQSPSSLSASVGDRVTITCRASQSISTWLAWYQQKPGKAPKLLIYAASSLQSGVPSRFSGSGSGTDFTLTISSLQPEDFATYYCQQANAFPPTFGQGTRLEIK | binds
